# Procedure details: yeast display, Sf9 membrane polyspecificity reagent, FACS + sequencing; frameworks hold sequencing errors
Test readout: polyreactivity (PSR sort gate)

>>> data_value("QDQLGDSGGGLVQAGGSLRLSCAASGSTYSVYTMGWYRQAPGKERELVAGITSNAGSTYYADSVKGRFTISRDNAMNTVYLEMNRLKPEDTAVYYCNADRWVRTTYDYWGQGTQVTVSS")
"high polyreactivity"
>>> data_value("QVQIVESGGGLVQAGGSLRLSCAASGITFVPNAIGLYRQAPGKERELFDAITNGDSTNYADSVKGRFTISRDNAKNTVYLQMNSLKPEDTAVYYCAADSCAQRPNQGRVSLHYYWGQVTQVTVSS")
"low polyreactivity"
>>> data_value("QVQHVESGGGLVQAGGSLRLSCAASGIFFFYGMGWYRQAPGKQRQLLAVISTGDTTDYADSVKGRSTISRDNAKNTVYLQMNSLIPEDTAVYYCAATGRSRSYSWSKLNYWGQGTQVTVSS")
"low polyreactivity"
>>> data_value("QVQLVESGGGLVQAGGSLSLSCAASGITLYRYVMGWYRQAPWKERELVADNTGRGTSTYYADSVKGRFTISRDNAKNTVYFQLNSLKPEDTAVYYCNAEYTKTGALVIPYTYYYAEDYWGQATQVTVSS")
"low polyreactivity"
>>> data_value("QVQLVESGGGLVQAGGSLRFSCVASGSIFRGNAKGWYRQAPGKERELVASISKGGGSTYYADSVKGRFLISRDNAKNTVYLQMNSLKPEDTAVYYCAARGGLDGIQYDYDYWGQGTQVTVSS")
"low polyreactivity"

Could I get polyreactivity (PSR sort gate) for every one of these entries?
1. QVQLVESGGGLVQAGGSLRLSCAASGSTFYLYAMGWYRQAPGKEREFVARISASGGNTYYADSVKGRFTISRDNAKNTVYLQMNSLKPEDTAVYYCATRGSRYPYVAYNYWGQGTQVTVSS
2. QVQLVESRGGLVQAGGSLRLSFAASGSTFIKNAMGWYRQAPGKEWELVAAITSGGSRSYADSVKGRFTISRDNAKNTVYLQMNSLKPEDTAVYYCATDHDIGYNFYRYDYWGQGTQVTVSS

Response:
1. high polyreactivity
2. low polyreactivity

Provide reported polyreactivity (PSR sort gate) for each item, in the same order as listed.
1. QVQLVESGGGLVQAGGSIRLSCAASGRTFYGYAMGRYRQAPGKEREFDAAISVGGVSTYYADSVKGRFTISRDNAKNTVYLQMNSLKPEDTAVYYCAAYTRYWSYGYWGQGTQVTVSS
2. QVQLVESGGGLVQAGGSLRLSCAASGRTFARYTMGWYRQAPGKERELVASITRGGSTYYADSVKGRFTISRDNAKNTVYLQMNSLKPEDTAVYYCAARFPQHNYWAMDYWGQGTQVTVSS
3. QVQLVESGGVLVQAGGSLRLSCAASGFTFWSYAMGWYRQAPGKERELVAAISSGDNTYYADSVKGRFTISRDNAKNTVYLQMNSLKPEDTAVYYCNAFYYYEYDYWGQGTQVTVSS

Response:
["high polyreactivity", "high polyreactivity", "low polyreactivity"]

Would you be so kind as to report polyreactivity (PSR sort gate) for each listed record?
1. QVQLVESGGRLVQAGGSLRLICAASGLIFYHNAMGWYRQAPGKERELVAAITASGGSTYYADSVKGRFTISRDNAKNTVYLQMNSLKPEDTAVYSCSADGPLDSDLDYWGQGTQVTVSS
2. QVQLVESGGGLVQAGGSLRLSCAASGSTFKINAMGWYRQAPGKERELVAAIRSRGGGTYYADSVKGRFTISRDNAKNTVYLQMNSLKPEDTAVYYCAATRRYHFDYWGQGTQVTVSS
3. QVQLVESGGGLVQAGGSLRLSCAASGRIFGAYAMGWYRQAPGKERELVAAIDIRGGNTYYADSVKGRFTISRDNAKNTVYLQMNSLKPEDTAVYYCAADTWYDAYNYWGQGTQVNVSS

Response:
1. low polyreactivity
2. high polyreactivity
3. low polyreactivity
